Tested on: E. coli TESEC Mtb Alr
Experiment: growth (OD600 after 10 h); higher = more growth (less inhibition)
Settings: arabinose 100 nM; compound 0.1 mM; raw OD600 reference: median of DMSO wells 0.413, cell-free background 0.052
Structures can show the parent of a compound that is named as a salt.
growth values, listed per item
Readout Label: growth

INSERT INTO measurements (compound, target_or_system, readout_label, recorded_value) VALUES
  ('NC(=O)c1ncn([C@@H]2O[C@H](CO)[C@@H](O)[C@H]2O)n1 [Ribavirin]', 'E. coli TESEC Mtb Alr', 'growth', 0.415),
  ('CCOC(=O)C1=C(C)NC(C)=C(C(=O)OCC)C1c1ccccc1/C=C/C(=O)OC(C)(C)C [Lacidipine]', 'E. coli TESEC Mtb Alr', 'growth', 0.429),
  ('Nc1nc2[nH]cc(CCc3ccc(C(=O)N[C@@H](CCC(=O)O)C(=O)O)cc3)c2c(=O)[nH]1 [Pemetrexed disodium]', 'E. coli TESEC Mtb Alr', 'growth', 0.416),
  ('COC(=O)[C@@H]1[C@H]2C[C@H]3c4[nH]c5ccccc5c4CCN3C[C@@H]2CC[C@@H]1O [Yohimbine hydrochloride]', 'E. coli TESEC Mtb Alr', 'growth', 0.409),
  ('CC1(C)S[C@@H]2[C@H](NC(=O)[C@H](C(=O)O)c3ccsc3)C(=O)N2[C@H]1C(=O)O [Ticarcillin sodium]', 'E. coli TESEC Mtb Alr', 'growth', 0.419),
  ('CC(=O)O[C@H]1C[C@@H]2CC[C@@H]3[C@H](CC[C@@]4(C)[C@H]3C[C@H]([N+]3(C)CCCCC3)[C@@H]4OC(C)=O)[C@@]2(C)C[C@@H]1N1CCCCC1 [Vecuronium bromide]', 'E. coli TESEC Mtb Alr', 'growth', 0.396),
  ('CC(=O)[C@@]12O[C@](C)(c3ccccc3)O[C@@H]1C[C@H]1[C@@H]3CCC4=CC(=O)CC[C@]4(C)[C@H]3CC[C@@]12C [Algestone acetophenide]', 'E. coli TESEC Mtb Alr', 'growth', 0.413);

----------
Tested on: E. coli TESEC Mtb DapB
Test: growth (OD600 after 10 h); higher = more growth (less inhibition)
Settings: arabinose induction (level): Low; compound 0.1 mM; raw OD600 reference: median of DMSO wells 0.227, cell-free background 0.041
Counter-ions that a name gives are not always drawn.
Kindly return 1 if reported growth is no lower than 0.2; return -1 if it is lower.

INSERT INTO results (compound, target_or_system, assigned_class) VALUES
  ('CCCCC[C@H](O)/C=C/[C@H]1[C@H](O)CC(=O)[C@@H]1CCCCCCC(=O)O [Alprostadil]', 'E. coli TESEC Mtb DapB', -1),
  ('NNC(=O)c1ccncc1 [Isoniazid]', 'E. coli TESEC Mtb DapB', 1),
  ('COc1ccc2c(c1)N(C[C@H](C)CN(C)C)c1ccccc1S2 [Methotrimeprazine maleat salt]', 'E. coli TESEC Mtb DapB', 1),
  ('CC(=O)N(O)CCCCCNC(=O)CCC(=O)N(O)CCCCCNC(=O)CCC(=O)N(O)CCCCCN [Deferoxamine mesylate]', 'E. coli TESEC Mtb DapB', -1),
  ('Cc1ccnc(NS(=O)(=O)c2ccc(N)cc2)n1 [Sulfamerazine]', 'E. coli TESEC Mtb DapB', 1),
  ('O=C1CC[C@@H](C(=O)N2CSC[C@H]2C(=O)O)N1 [Pidotimod]', 'E. coli TESEC Mtb DapB', 1),
  ('OCCN1CCN(CC/C=C2/c3ccccc3Sc3ccc(Cl)cc32)CC1 [Zuclopenthixol dihydrochloride]', 'E. coli TESEC Mtb DapB', -1),
  ('CC1=C(C(=O)O)N2C(=O)[C@@H](NC(=O)[C@H](N)c3ccc(O)cc3)[C@H]2SC1 [Cefadroxil]', 'E. coli TESEC Mtb DapB', 1);

----------
Test system: E. coli TESEC Mtb Alr
Test: growth (OD600 after 10 h); higher = more growth (less inhibition)
Conditions: arabinose 10000000 nM; compound 0.1 mM; raw OD600 reference: median of DMSO wells 0.146, cell-free background 0.041
Counter-ions that a name gives are not always drawn.
Readout Label: growth

INSERT INTO assay_data (compound, readout_label, recorded_value) VALUES
  ('CNNCc1ccc(C(=O)NC(C)C)cc1 [Procarbazine hydrochloride]', 'growth', 0.151),
  ('CCCCOc1cc(C(=O)NCCN(CC)CC)c2ccccc2n1', 'growth', 0.174),
  ('Cc1cn[nH]c1 [Fomepizole]', 'growth', 0.137),
  ('O=C(O)c1cn(C2CC2)c2cc(N3CCNCC3)c(F)cc2c1=O [Ciprofloxacin hydrochloride monohydrate]', 'growth', 0.0402),
  ('CCOC(=O)O[C@]1(C(=O)OCCl)CC[C@H]2[C@@H]3CCC4=CC(=O)C=C[C@]4(C)[C@H]3[C@@H](O)C[C@@]21C [Loteprednol etabonate]', 'growth', 0.179),
  ('CCC(=O)OCC(=O)[C@@]1(OC(=O)CC)[C@@H](C)C[C@H]2[C@@H]3CCC4=CC(=O)C=C[C@]4(C)[C@@]3(Cl)[C@@H](O)C[C@@]21C [Beclomethasone dipropionate]', 'growth', 0.167),
  ('C[C@H]1[C@H](NC(=O)/C(=N\OC(C)(C)C(=O)O)c2csc(N)n2)C(=O)N1S(=O)(=O)O', 'growth', 0.172),
  ('COc1ccc2c3c1O[C@H]1C[C@@H](O)C=C[C@@]31CCN(C)C2 [Galanthamine hydrobromide]', 'growth', 0.138);

----------
System: E. coli TESEC Mtb Alr
Test: growth (OD600 after 10 h); higher = more growth (less inhibition)
Settings: arabinose 1000000 nM; compound 0.1 mM; raw OD600 reference: median of DMSO wells 0.193, cell-free background 0.041
Structures can show the parent of a compound that is named as a salt.
Readout Label: growth

INSERT INTO assay_data (molecule, readout_label, recorded_value) VALUES
  ('CC(=O)OCC(=O)[C@@]12N=C(C)O[C@@H]1C[C@H]1[C@@H]3CCC4=CC(=O)C=C[C@]4(C)[C@H]3[C@@H](O)C[C@@]12C', 'growth', 0.168),
  ('C=C[C@H]1CN2CC[C@H]1C[C@@H]2[C@@H](O)c1ccnc2ccc(OC)cc12 [Quinidine hydrochloride monohydrate]', 'growth', 0.138),
  ('CCN(CC)CCNC(=O)c1cc(Cl)c(N)cc1OC [Metoclopramide monohydrochloride]', 'growth', 0.179),
  ('O=C1C(CC[S+]([O-])c2ccccc2)C(=O)N(c2ccccc2)N1c1ccccc1 (stereo unspecified)', 'growth', 0.151),
  ('COC(=O)Nc1nc2cc(C(=O)c3ccc(F)cc3)ccc2[nH]1', 'growth', 0.191),
  ('CCn1cc(C(=O)O)c(=O)c2cc(F)c(N3CCNC(C)C3)c(F)c21 (stereo unspecified) [Lomefloxacin hydrochloride]', 'growth', 0.0398),
  ('CC(=O)Oc1ccccc1C(=O)O', 'growth', 0.19),
  ('CN1CCN(CCCN2c3ccccc3Sc3ccc(C(F)(F)F)cc32)CC1 [Trifluoperazine dihydrochloride]', 'growth', 0.0393),
  ('Cn1c(NCCN(CCO)CCCc2ccc([N+](=O)[O-])cc2)cc(=O)n(C)c1=O', 'growth', 0.144),
  ('CN1CCC(OC(c2ccccc2)c2ccccc2)CC1 [Diphenylpyraline hydrochloride]', 'growth', 0.141),
  ('CNS(=O)(=O)Cc1ccc2[nH]cc(CCN(C)C)c2c1 [Sumatriptan succinate]', 'growth', 0.193),
  ('N[C@@H](C(=O)N[C@@H]1C(=O)N2C(C(=O)O)=C(Cl)CC[C@H]12)c1ccccc1', 'growth', 0.175),
  ('CCN(CC)CCNc1ccc(CO)c2sc3ccccc3c(=O)c12', 'growth', 0.0552),
  ('CC(C)(C)NC[C@H](O)COc1cccc2c1CCCC2=O [(-) -Levobunolol hydrochloride]', 'growth', 0.173),
  ('C=CC1=C(C(=O)O)N2C(=O)[C@@H](NC(=O)/C(=N\O)c3csc(N)n3)[C@H]2SC1', 'growth', 0.0415),
  ('Nc1ccn([C@@H]2O[C@H](CO)[C@@H](O)[C@@H]2O)c(=O)n1', 'growth', 0.169);

----------
Test system: E. coli TESEC Mtb Asd
Test: growth (OD600 after 10 h); higher = more growth (less inhibition)
Conditions: arabinose induction (level): High; compound 0.1 mM; raw OD600 reference: median of DMSO wells 0.331, cell-free background 0.041
Counter-ions that a name gives are not always drawn.
# growth per entry
Readout Label: growth

INSERT INTO assay_data (molecule, recorded_value) VALUES
  ('Cc1cc(C(C)(C)CC(C)(C)C)ccc1OCCOCC[N+](C)(C)Cc1ccccc1 [Methyl benzethonium chloride]', 0.0532),
  ('O=C(O)c1cc(-c2ccc(F)cc2F)ccc1O [Diflunisal]', 0.218),
  ('OCCN1CCN(CCCN2c3ccccc3C=Cc3ccccc32)CC1 [Opipramol dihydrochloride]', 0.16),
  ('COc1cc(N)c(Cl)cc1C(=O)NC1CCN(CCCOc2ccc(F)cc2)CC1OC (configuration not stated) [Cisapride]', 0.222),
  ('N#Cc1ccc(C(c2ccc(C#N)cc2)n2cncn2)cc1 [Letrozole]', 0.243),
  ('CCOC(=O)[C@H](CCc1ccccc1)N[C@@H](C)C(=O)N1CCC[C@H]1C(=O)O [Enalapril maleate]', 0.322),
  ('Cc1cc(-n2c(=O)[nH]c(=O)n(C)c2=O)ccc1Oc1ccc(SC(F)(F)F)cc1 [Toltrazuril]', 0.0752),
  ('CC(C)(O/N=C(\C(=O)N[C@@H]1C(=O)N2C(C(=O)[O-])=C(C[n+]3ccccc3)CS[C@H]12)c1csc(N)n1)C(=O)O [Ceftazidime pentahydrate]', 0.113),
  ('NC(=O)N/N=C/c1ccc([N+](=O)[O-])o1 [Nitrofural]', 0.0898),
  ('CC(=O)N[C@@H](CC(=O)N[C@@H](CCC(=O)O)C(=O)O)C(=O)O [Spaglumic acid]', 0.227),
  ('CCCSc1ccc2[nH]c(NC(=O)OC)nc2c1 [Albendazole]', 0.41),
  ('C[C@]12CC[C@@H]3c4ccc(O)cc4CC[C@H]3[C@@H]1CC[C@@H]2O [Estradiol-17 beta]', 0.199),
  ('CNNCc1ccc(C(=O)NC(C)C)cc1 [Procarbazine hydrochloride]', 0.359),
  ('Cc1c(Cl)cccc1Nc1ncccc1C(=O)O [Clonixin Lysinate]', 0.19),
  ('C[C@@H]1C[C@H]2[C@@H]3C[C@H](F)C4=CC(=O)C=C[C@]4(C)[C@@]3(F)[C@@H](O)C[C@]2(C)[C@@]1(O)C(=O)COC(=O)C(C)(C)C [Flumethasone pivalate]', 0.256),
  ('CC(=O)Nc1ccc(OCC(O)CNC(C)C)cc1 (configuration not stated) [Practolol]', 0.408),
  ('CC(=O)O[C@H]1C[C@@]2(C)[C@@H](C[C@@H](O)[C@H]3[C@@]4(C)CC[C@@H](O)[C@@H](C)[C@@H]4CC[C@@]32C)/C1=C(\CCC=C(C)C)C(=O)O [Fusidic acid sodium salt]', 0.0498),
  ('COC(=O)[C@H](c1ccccc1Cl)N1CCc2sccc2C1 [Clopidogrel]', 0.158),
  ('CC[C@]12CCCN3CCc4c(n(c5ccccc45)C(=O)C1)[C@@H]32 [Eburnamonine (-)]', 0.119),
  ('NC(=O)c1cc[n+](CC2=C(C(=O)[O-])N3C(=O)[C@@H](NC(=O)[C@@H](c4ccccc4)S(=O)(=O)O)[C@H]3SC2)cc1 [Cefsulodin sodium salt]', 0.33),
  ('NS(=O)(=O)Cc1noc2ccccc12 [Zonisamide]', 0.296),
  ('CC(C)[C@H](N)C(=O)OCCOCn1cnc2c(=O)nc(N)[nH]c21 [Valacyclovir hydrochloride]', 0.258),
  ('N=C(N)NS(=O)(=O)c1ccc(N)cc1 [Sulfaguanidine]', 0.38),
  ('CCc1nn(CCCN2CCN(c3cccc(Cl)c3)CC2)c(=O)n1CCOc1ccccc1 [Nefazodone HCl]', 0.0498),
  ('COc1ccccc1Oc1c(NS(=O)(=O)c2ccc(C(C)(C)C)cc2)nc(-c2ncccn2)nc1OCCO [Bosentan]', 0.253),
  ('CCC(NC(C)C)C(O)c1ccc(O)c(O)c1 (configuration not stated) [Isoetharine mesylate salt]', 0.309),
  ('C[C@@H]1C[C@H]2[C@@H]3CCC4=CC(=O)C=C[C@]4(C)[C@@]3(Cl)[C@@H](O)C[C@]2(C)[C@@]1(OC(=O)c1ccco1)C(=O)CCl [Mometasone furoate]', 0.198),
  ('COc1cccc(N(C)C(=S)Oc2ccc3c(c2)CCCC3)n1 [Liranaftate]', 0.297),
  ('Nc1ccc(S(=O)(=O)Nc2ccccn2)cc1 [Sulfapyridine]', 0.354),
  ('NC(=O)c1cnccn1 [Pyrazinamide]', 0.289),
  ('Cc1ccc(NC(=O)c2ccc(CN3CCN(C)CC3)cc2)cc1Nc1nccc(-c2cccnc2)n1 [Imatinib]', 0.185),
  ('CC(=O)OCC(=O)[C@@]12N=C(C)O[C@@H]1C[C@H]1[C@@H]3CCC4=CC(=O)C=C[C@]4(C)[C@H]3[C@@H](O)C[C@@]12C [Deflazacort]', 0.323);
